All values here come from ChEMBL document CHEMBL1138105.

Assay: Volume of distribution in dog
Type: ADME, organism-based, Canis lupus familiaris
Conditions: in vivo, read-out: Vdss

[
  {
    "smilesString": "COc1cccc([C@@H](c2ccc3c(c2)CN(CC(=O)O)CC3)N2C[C@@H](C)N(Cc3ccccc3)C[C@@H]2C)c1",
    "outputUnit": "L/kg",
    "Vd": 5.4
  }
]

----------
Target: Kappa-type opioid receptor (Cavia porcellus)
Sequence (P41144 whole entry): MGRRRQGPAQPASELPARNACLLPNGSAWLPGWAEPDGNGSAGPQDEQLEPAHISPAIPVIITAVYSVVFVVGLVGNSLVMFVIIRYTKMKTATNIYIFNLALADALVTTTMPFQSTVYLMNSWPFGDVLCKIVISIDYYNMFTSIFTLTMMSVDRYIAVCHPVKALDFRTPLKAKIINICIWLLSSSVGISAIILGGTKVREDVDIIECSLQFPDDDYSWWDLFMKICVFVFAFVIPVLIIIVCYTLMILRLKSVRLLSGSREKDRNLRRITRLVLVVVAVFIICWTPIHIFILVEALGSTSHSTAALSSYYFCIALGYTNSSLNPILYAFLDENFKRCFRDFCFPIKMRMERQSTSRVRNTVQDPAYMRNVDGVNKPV
Assay: Agonist activity at kappa opioid receptor in myenteric plexus muscle from guinea pig
pIC50: −log10 of the molar value.

[
  {
    "smilesString": "C[C@@H]1CN([C@@H](c2cccc(O)c2)c2ccc3c(c2)CN(CCC(=O)O)CC3)[C@@H](C)CN1Cc1ccccc1",
    "relationSymbol": "=",
    "pIC50": 5.30
  },
  {
    "smilesString": "C[C@@H]1CN([C@@H](c2cccc(O)c2)c2ccc3c(c2)CN(C(=O)c2cccc(C(=O)O)c2)C3)[C@@H](C)CN1Cc1ccccc1",
    "relationSymbol": "=",
    "pIC50": 5.90
  },
  {
    "smilesString": "COc1cccc([C@@H](c2ccc3c(c2)CN(CCC(=O)O)CC3)N2C[C@@H](C)N(Cc3ccccc3)C[C@@H]2C)c1",
    "relationSymbol": "=",
    "pIC50": 6.00
  },
  {
    "smilesString": "C[C@@H]1CN([C@@H](c2cccc(O)c2)c2ccc3c(c2)CN(CCC(=O)O)C3)[C@@H](C)CN1Cc1ccccc1",
    "relationSymbol": "=",
    "pIC50": 5.10
  },
  {
    "smilesString": "COc1cccc([C@@H](c2ccc3c(c2)CN(CCC(=O)O)C3)N2C[C@@H](C)N(Cc3ccccc3)C[C@@H]2C)c1",
    "relationSymbol": "<",
    "pIC50": 5.00
  },
  {
    "smilesString": "C[C@@H]1CN([C@@H](c2cccc(O)c2)c2ccc3c(c2)CN(C(=O)C(=O)O)CC3)[C@@H](C)CN1Cc1ccccc1",
    "relationSymbol": "=",
    "pIC50": 6.40
  },
  {
    "smilesString": "C[C@@H]1CN([C@@H](c2cccc(O)c2)c2ccc3c(c2)CN(CC(=O)O)C3)[C@@H](C)CN1Cc1ccccc1",
    "relationSymbol": "=",
    "pIC50": 5.90
  }
]

----------
pIC50: −log10 of the molar value.
Entries with their measured pIC50, system Delta-type opioid receptor (Mus musculus):

[
  {
    "smilesString": "C[C@@H]1CN([C@@H](c2cccc(O)c2)c2ccc3c(c2)CN(CC(=O)O)C3)[C@@H](C)CN1Cc1ccccc1",
    "pIC50": 9.30
  },
  {
    "smilesString": "C[C@@H]1CN([C@H](c2ccc(-c3ccccc3C(=O)O)cc2)c2cccc(O)c2)[C@@H](C)CN1Cc1ccccc1",
    "pIC50": 10.70
  },
  {
    "smilesString": "C[C@@H]1CN([C@@H](c2cccc(O)c2)c2ccc3c(c2)CN(C(=O)c2ccccc2C(=O)O)C3)[C@@H](C)CN1Cc1ccccc1",
    "pIC50": 9.50
  },
  {
    "smilesString": "C[C@@H]1CN([C@@H](c2cccc(O)c2)c2ccc3c(c2)CN(CCC(=O)O)CC3)[C@@H](C)CN1Cc1ccccc1",
    "pIC50": 11.30
  },
  {
    "smilesString": "C[C@@H]1CN([C@@H](c2cccc(O)c2)c2ccc3c(c2)CN(Cc2ccccc2C(=O)O)C3)[C@@H](C)CN1Cc1ccccc1",
    "pIC50": 8.50
  },
  {
    "smilesString": "C[C@@H]1CN([C@@H](c2cccc(O)c2)c2ccc3c(c2)CN(CCC(=O)O)C3)[C@@H](C)CN1Cc1ccccc1",
    "pIC50": 9.00
  },
  {
    "smilesString": "C[C@@H]1CN([C@@H](c2cccc(O)c2)c2ccc3c(c2)CN(C(=O)CC(=O)O)CC3)[C@@H](C)CN1Cc1ccccc1",
    "pIC50": 12.00
  }
]
